Target: Tau
Assay: rat primary cortical neurons, FLIPR, 25 uM ASO
Bases are written 5' to 3'; sugars and linkages follow in the same order, as letters with counts (s phosphorothioate, o phosphodiester; PS: all linkages phosphorothioate). The collection does not say whether C is 5-methylated. l = locked nucleic acid (LNA); d = 2'-deoxy (DNA)
quantity.measured: calcium oscillation score

Consider the following illustrative entries.
| sequence.chain | quantity.measured | recorded.result |
| --- | --- | --- |
| CTTTATTTCCAAATTCAC (sugars lldlddddddddddldll, PS) | calcium oscillation score | 136 % of control |
| TTAATTATCTGCACCTT (sugars l3 d10 l4, PS) | calcium oscillation score | 33.9 % of control |
| TGCTTACACACCACACA (sugars l2 d12 l3, PS) | calcium oscillation score | 80.5 % of control |
| TTAATTTCACCCTC (sugars l3 d8 l3, PS) | calcium oscillation score | 44.1 % of control |
| CCATCAGTCTTATCTCC (sugars l1 d14 l2, PS) | calcium oscillation score | 52.9 % of control |

Using known records, supply calcium oscillation score for TGCCCATTCAAAATCTT (sugars l3 d11 l3, PS) 74.3 % of control

Please look at this sequence and report its calcium oscillation score: CCAGCAGCTTCGTCTTCCAG (sugars l3 d14 l3, PS) 36.1 % of control

Provide calcium oscillation score value for the following sequence: CCCAGACCATCAATTTC (sugars l2 d12 l3, PS) 82.2 % of control

Consider the sequence ATTTCCAAATTCACTTTTAC (sugars lldlldddddddddlddlll, PS) and give its recorded calcium oscillation score. 35.4 % of control

Return calcium oscillation score for the following sequence: ATTAACCAATTAACCG (sugars l3 d10 l3, PS) 103 % of control

In one line, give reported calcium oscillation score of the entry GCGAGTCTACCATGTCGATG (sugars l3 d14 l3, PS) . 0 % of control

Specify reported calcium oscillation score for the sequence shown: CAGGGACGTGGGTGATATTG (sugars l3 d14 l3, PS) 0 % of control

Specify calcium oscillation score for AACCAACTCAACATTACCCT (sugars l2 d16 l2, PS) and stop. 86.7 % of control

Could you please provide reported calcium oscillation score for ATTTATTAATTCATAAATGA (sugars l3 d14 l3, PS) ? Thanks! 46.3 % of control

Give recorded calcium oscillation score. TTCCTTTCAATGACCAA (sugars l3 d10 l4, PS) 56.6 % of control

Please give the documented calcium oscillation score of ACATCCTGCCATACCA (sugars l3 d11 l2, PS) 45 % of control

Provide only the value of recorded calcium oscillation score for CTTCCATCACTTCGAACTCC (sugars l3 d14 l3, PS) 27.1 % of control

Return the recorded calcium oscillation score value; entry: TTTTCAAACACACCTTCATT (sugars l2 d14 l4, PS) 98.6 % of control

Annotate the sequence AGGTATCCAGCCATATTTCA (sugars l3 d14 l3, PS) with its measured calcium oscillation score. 20.2 % of control

Identify calcium oscillation score associated with the sequence AAACATCTAAACACCTCAAT (sugars l4 d12 l4, PS) 78.9 % of control

Return calcium oscillation score (reported value) for this sequence: CTTGGCTTTTTTGTCATCGC (sugars l3 d14 l3, PS) 23.3 % of control

Return the recorded calcium oscillation score value; entry: GGCATGATTGTGGGCT (sugars l3 d10 l3, PS) 6.12 % of control

Specify reported calcium oscillation score for the sequence shown: AGTCTTTATTAACACTC (sugars l4 d9 l4, PS) 60.8 % of control

Sourced from the OligoGym collection
